- Tested on: type III secretion in S. typhimurium
- methodSummary: microbe, parasite or virus in culture
- Type: cell-based, Salmonella enterica serovar Typhimurium
- conditionDetails: Salmonella enterica, TYPHIMURIUM, read-out: % inhibition of SipA secretion
Please go through the items and note down their inhibition at 33 µM.
Could you give me the number in %? Just the number is fine.

Exam item: Consider the compound shown here: COc1cc(/C=C2\S/C(=N\c3ccccc3)N(C(Cc3ccncc3)C(=O)N[C@@H](CCCNC(=N)N)C(N)=O)C2=O)cc(OC)c1O (stereo partly shown) [compound 95] What is its recorded inhibition at 33 µM?
Marked response: 8

Exam item: Consider the compound shown here: COc1cc(/C=C2\S/C(=N\c3ccccc3)N(C(CCCNC(=N)N)C(=O)N3Cc4ccccc4C[C@H]3C(N)=O)C2=O)cc(OC)c1O (stereo partly shown) [compound 88] What is its recorded inhibition at 33 µM?
Marked response: 0

Exam item: Consider the compound shown here: COc1cc(/C=C2\S/C(=N\c3ccccc3)N([C@@H](C)C(=O)N[C@@H](C)C(N)=O)C2=O)cc(OC)c1O [compound 49] What is its recorded inhibition at 33 µM?
Marked response: 26

Exam item: Consider the compound shown here: COc1cc(/C=C2\S/C(=N\c3ccccc3)N([C@H](C)C(=O)N[C@@H](CCCNC(=N)N)C(N)=O)C2=O)cc(OC)c1O [compound 85] What is its recorded inhibition at 33 µM?
Marked response: 31

Exam item: Consider the compound shown here: COc1cc(/C=C2\SC(=Nc3ccccc3)N([C@@H](CCCN)C(=O)N[C@@H](CC3CNc4ccccc43)C(N)=O)C2=O)cc(OC)c1O (stereo partly shown) [compound 90] What is its recorded inhibition at 33 µM?
Marked response: 22

Exam item: Consider the compound shown here: COc1cc(/C=C2\S/C(=N\c3ccccc3)N(C(CCCNC(=N)N)C(=O)N3CSC[C@H]3C(N)=O)C2=O)cc(OC)c1O (stereo partly shown) [compound 94] What is its recorded inhibition at 33 µM?
Marked response: 7

Exam item: Consider the compound shown here: COc1cc(/C=C2\S/C(=N\c3ccccc3)N([C@@H](C)C(=O)N[C@@H](CCCNC(=N)N)C(N)=O)C2=O)cc(OC)c1O [compound 56] What is its recorded inhibition at 33 µM?
Marked response: 1

Exam item: Consider the compound shown here: COc1cc(/C=C2\S/C(=N\c3ccccc3)N(CCCCCCN)C2=O)cc(OC)c1O [compound 45] What is its recorded inhibition at 33 µM?
Marked response: 42

Exam item: Consider the compound shown here: COc1cc(/C=C2\S/C(=N\c3ccccc3)N([C@@H](CCCNC(=N)N)C(=O)N[C@@H](C)C(N)=O)C2=O)cc(OC)c1O [compound 87] What is its recorded inhibition at 33 µM?
Marked response: 38

Exam item: Consider the compound shown here: COc1cc(/C=C2\S/C(=N\c3ccccc3)N(C(C(=O)N[C@@H](Cc3ccc(O)cc3)C(N)=O)C(C)C)C2=O)cc(OC)c1O (single isomer, unassigned) [compound 69] What is its recorded inhibition at 33 µM?
Marked response: 32
